- experimental details: soluble on expression in E. coli; label from the status in PepcDB or PDB records
readout kind: soluble on expression in E. coli

{"query sequence": "MVDNVLAILRMGDELADLAVDLFDGVTDPTGIAPATTRIVARAEELLSARGNGRDDIRIACGPGCMTCCTVNVSVLVPEAWTIAVWLRQHHDAGEVDRLAVRLTAAARAIRWLDDADRIRSGVTCPFLDERGWCSIHPVRPLMCRALTSTDPAQCRRALESRTSDEEVPLECNLLQKYLMEQAYRSLAAALERRGIDSAGRELVGTVARFLNEPWLADKFLVGRLITLPESLEHHHHHH", "observed measurement": "not soluble"}
{"query sequence": "MKVEKEFPLMNFSLRRLPLFILIKTRKQTIEMNLRKKGHGIFFSRFGVFISKKKNHINICTLLLTKHPYTKGFPRQNVVETILFRRNSKTHFGRPATRRRPLGEREVNPSARSLG", "observed measurement": "soluble"}
{"query sequence": "MIPGEYRLREEPIVCNRQKSATKLTVVNRGDRPVQVGSHFHFFEVNSFLEFDRQAAYGKHLNIPAGTAVRFEPGDAKQVELVPFSGERRVYGLNNMVNGPLDGNGKGGVRE", "observed measurement": "soluble"}
{"query sequence": "MAHHHHHHMSAVLMAAVKVWTGNVRACLRVHHDTRTFCKAMKMRNLPVVLLDGVRFASLESVQHGKVRTRKDVVSGDLCVAIRKLNGVELMDDVQPRDPAIFLRDEKSKTFSAEEAREIYSIIVKSLSHILVVDSEVKTVECGIKRIMGNSTATEPETPKLTDLIRWLKSNMSTHDVLPIFSTQDRTVTFFVNQKIFRRIGHSDNGRRKK", "observed measurement": "not soluble"}
